Tested on: IST-MES1 (Mesothelioma)
Measurement Notes: combination Emax (second highest fraction inhibited in the dose matrix, 72 h); higher = more inhibition; extreme values may be limits of the assay
Parameter Measured: combination Emax
Write no unit; give the number alone.

A selection of reference data follows.
CCc1c2c(nc3ccc(O)cc13)-c1cc3c(c(=O)n1C2)COC(=O)[C@]3(O)CC [SN-38] + O=C(c1cc(Cc2n[nH]c(=O)c3ccccc23)ccc1F)N1CCN(C(=O)C2CC2)CC1 [Olaparib] (first compound max 0.3 µM, 7x7, partner max 10 µM) : 0.63
CC1(C)CCC(CN2CCN(c3ccc(C(=O)NS(=O)(=O)c4ccc(NCC5CCOCC5)c([N+](=O)[O-])c4)c(Oc4cnc5[nH]ccc5c4)c3)CC2)=C(c2ccc(Cl)cc2)C1 [Venetoclax] + C=CCn1c(=O)c2cnc(Nc3ccc(N4CCN(C)CC4)cc3)nc2n1-c1cccc(C(C)(C)O)n1 [AZD1775] (first compound max 1 µM, partner max 1 µM) : 0.254

We now examine a further compound.
Record summary for Cc1c2c(nn1C)CSCc1cc(n(C)n1)CSc1cc(c3ccccc3c1)OCCCc1c(C(=O)O)n(C)c3c-2c(Cl)ccc13 [AZD5991] + CCN(CCO)CCCOc1ccc2c(Nc3cc(CC(=O)Nc4cccc(F)c4)[nH]n3)ncnc2c1 [AZD2811] (first compound max 1 µM, 7x7, partner max 1 µM) : reported combination Emax = 0.266
